Origin of the recorded values: paper PMC9504950

Dear all, this message contains pKi results, target or system L. amazonensis arginase (L-ARG) (Leishmania amazonensis).
When answering, recall that pKi equals minus log10 of the concentration in mol/L, and write that number alone.

{"COMPOUND": "O=C(/C=C/c1ccc(O)c(O)c1)Nc1cc(F)c(F)cc1C(=O)O [Compound 9]", "RECORDED_MEASUREMENT": 5.34}
{"COMPOUND": "O=C(CCc1ccc(O)c(O)c1)O[C@H](Cc1ccc(O)cc1)C(=O)O [Compound 4]", "RECORDED_MEASUREMENT": 5.70}
{"COMPOUND": "O=C(CCc1ccc(O)c(O)c1)O[C@H](Cc1ccc(O)c(O)c1)C(=O)O [Compound 3]", "RECORDED_MEASUREMENT": 5.41}
{"COMPOUND": "O=C(CCc1ccc(O)c(O)c1)O[C@H](Cc1ccccc1)C(=O)O [Compound 2]", "RECORDED_MEASUREMENT": 5.24}

Okay, next one:
-- ask Provide pKi, system L. amazonensis arginase (L-ARG) (Leishmania amazonensis), entry O=C(O)CC(OC(=O)/C=C/c1ccc(O)c(O)c1)C(=O)O (centres unmarked) [Compound 7]
-- reply 4.13
